Exercise: state measured IC50 for each of the compounds provided.
# Tested on: 855422-203-R-J1-PDC complex spheroid viability;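 also: drug exposure lasted 7 days starting on day 3 after seeding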
# assay_info: Anticancer human tumor 855422-203-R-J1-PDC patient-derived bladder carcinoma cell line growth inhibition
# details: curve of first compound; second compound 0.1 µM
Supply the numeric figure in µM, leaving out any unit text.

Exam item: Fill in the recorded IC50 for this compound, with 855422-203-R-J1-PDC complex spheroid viability as test system: Nc1ccccc1NC(=O)c1ccc(CNC(=O)OCc2cccnc2)cc1 + NC1CCC(NC2CC2c2ccccc2)CC1
Marked response: 1.34

Exam item: Next: COc1cc(C2c3cc4c(cc3C(OC3OC5COC(C)OC5C(O)C3O)C3COC(=O)C23)OCO4)cc(OC)c1O (configuration not stated) + NC1CCC(NC2CC2c2ccccc2)CC1
Marked response: 0.153

Exam item: Next: NS(=O)(=O)OCC1CC(n2ccc3c(NC4CCc5ccccc54)ncnc32)CC1O (configuration not stated) + NC1CCC(NC2CC2c2ccccc2)CC1
Marked response: 0.708

Exam item: Next: Nc1ccn(C2OC(CO)C(O)C2(F)F)c(=O)n1 (configuration not stated) + NC1CCC(NC2CC2c2ccccc2)CC1
Marked response: 0.00438
